Sourced from ChEMBL document CHEMBL4725466

Quick reference for viability at 10 µM among some compounds
- Tested on: MDA-MB-231
- ASSAY_METHOD_TEXT: Antiproliferative activity against human MDA-MB-231 cells assessed as cell viability at 10 uM after 48 hrs by celltiter-glo 2D luminescent assay relative to control
- Format: functional
- EXPERIMENTAL_PARAMETERS: read-out: Activity

- STRUCTURE: "CS(=O)(=O)Nc1ccc(NC(=O)Nc2ccc(-c3nc(N4CCOCC4)c4ccccc4n3)cc2)cc1"
  SYSTEM_UNDER_TEST: "MDA-MB-231"
  viability at 10 µM (%): 137
- STRUCTURE: "NS(=O)(=O)c1ccc(NC(=O)Nc2ccc(-c3nc(N4CCOCC4)c4ccccc4n3)cc2)cc1"
  SYSTEM_UNDER_TEST: "MDA-MB-231"
  viability at 10 µM (%): 114
- STRUCTURE: "CNC(=O)Nc1ccc(-c2nc(N3CCOCC3)c3ccccc3n2)cc1"
  SYSTEM_UNDER_TEST: "MDA-MB-231"
  viability at 10 µM (%): 180
- STRUCTURE: "CNC(=O)c1ccc(NC(=O)Nc2ccc(-c3nc(N4CCOCC4)c4ccccc4n3)cc2)cc1"
  SYSTEM_UNDER_TEST: "MDA-MB-231"
  viability at 10 µM (%): 66
- STRUCTURE: "O=C(Nc1ccc(CCO)cc1)Nc1ccc(-c2nc(N3CCOCC3)c3ccccc3n2)cc1"
  SYSTEM_UNDER_TEST: "MDA-MB-231"
  viability at 10 µM (%): 192
- STRUCTURE: "O=C(Nc1ccc(-c2nc(N3CCOCC3)c3ccccc3n2)cc1)Nc1cncnc1"
  SYSTEM_UNDER_TEST: "MDA-MB-231"
  viability at 10 µM (%): 138
- STRUCTURE: "O=C(Nc1ccc(CO)cc1)Nc1ccc(-c2nc(N3CCOCC3)c3ccccc3n2)cc1"
  SYSTEM_UNDER_TEST: "MDA-MB-231"
  viability at 10 µM (%): 208
- STRUCTURE: "O=C(NCCO)Nc1ccc(-c2nc(N3CCOCC3)c3ccccc3n2)cc1"
  SYSTEM_UNDER_TEST: "MDA-MB-231"
  viability at 10 µM (%): 146
- STRUCTURE: "N=C(N)NS(=O)(=O)c1ccc(NC(=O)Nc2ccc(-c3nc(N4CCOCC4)c4ccccc4n3)cc2)cc1"
  SYSTEM_UNDER_TEST: "MDA-MB-231"
  viability at 10 µM (%): 152
- STRUCTURE: "CC(=O)c1ccc(NC(=O)Nc2ccc(-c3nc(N4CCOCC4)c4ccccc4n3)cc2)cc1"
  SYSTEM_UNDER_TEST: "MDA-MB-231"
  viability at 10 µM (%): 74
- STRUCTURE: "O=C(Nc1ccccc1)Nc1ccc(-c2nc(N3CCOCC3)c3ccccc3n2)cc1"
  SYSTEM_UNDER_TEST: "MDA-MB-231"
  viability at 10 µM (%): 140
- STRUCTURE: "O=C(Nc1ccc(-c2nc(N3CCOCC3)c3ccccc3n2)cc1)Nc1ccc(S(=O)(=O)Nc2nccs2)cc1"
  SYSTEM_UNDER_TEST: "MDA-MB-231"
  viability at 10 µM (%): 140
